For each record, write down the corresponding % inhibition.
# system name: T1, recombinant human VEGF165 (human, UniProt P15692-4 27-191, biotinylated in the competition assays)
# T1 construct: Bought protein; also called hVEGF165; rhVEGF165
# T1 sequence (P15692 other isoform, or with tags, fused parts or gaps): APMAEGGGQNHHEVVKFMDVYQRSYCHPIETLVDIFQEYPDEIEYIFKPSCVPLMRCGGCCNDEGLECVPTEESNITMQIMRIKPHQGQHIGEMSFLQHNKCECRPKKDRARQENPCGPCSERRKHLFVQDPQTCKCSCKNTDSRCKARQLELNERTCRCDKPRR
# method notes: AlphaScreen, hVEGF165/hVEGFR2-Fc competition
# Parameters: concentration or dose not given beside the values
One number for each entry, in %.

>  <binder>
VEGFBII112D11 (VHH) VHH: EVQLVESGGGLVQPGGSLRLSCEASGRTFSSYSMGWFRQAPGKEREFVVAISKGGYKYDSVSLEGRFTISRDNAKNTVYLQINSLRPEDTAVYYCASSRAYGSSRLRLADTYEYWGQGTLVTVSS

>  <% inhibition / %>
100

$$$$

Q: Specify reported % inhibition for the binder shown: VEGFBII111G06 (VHH) VHH: EVQLVESGGGLVQPGGSLRLSCAASGRTFSSYSMGWFRQAPGKEREFVVAISKGGYKYDSVSLEGRFTISRDNAKNTVYLQMNSLRPEDTAVYYCASSRAYGSSRLRLADTYEYWGQGTLVTVSS
Ans: 100
